Biological target: IRE1 (Saccharomyces cerevisiae, UniProt P32361)
Construct: endogenous in cells
Sequence (P32361 19-1115): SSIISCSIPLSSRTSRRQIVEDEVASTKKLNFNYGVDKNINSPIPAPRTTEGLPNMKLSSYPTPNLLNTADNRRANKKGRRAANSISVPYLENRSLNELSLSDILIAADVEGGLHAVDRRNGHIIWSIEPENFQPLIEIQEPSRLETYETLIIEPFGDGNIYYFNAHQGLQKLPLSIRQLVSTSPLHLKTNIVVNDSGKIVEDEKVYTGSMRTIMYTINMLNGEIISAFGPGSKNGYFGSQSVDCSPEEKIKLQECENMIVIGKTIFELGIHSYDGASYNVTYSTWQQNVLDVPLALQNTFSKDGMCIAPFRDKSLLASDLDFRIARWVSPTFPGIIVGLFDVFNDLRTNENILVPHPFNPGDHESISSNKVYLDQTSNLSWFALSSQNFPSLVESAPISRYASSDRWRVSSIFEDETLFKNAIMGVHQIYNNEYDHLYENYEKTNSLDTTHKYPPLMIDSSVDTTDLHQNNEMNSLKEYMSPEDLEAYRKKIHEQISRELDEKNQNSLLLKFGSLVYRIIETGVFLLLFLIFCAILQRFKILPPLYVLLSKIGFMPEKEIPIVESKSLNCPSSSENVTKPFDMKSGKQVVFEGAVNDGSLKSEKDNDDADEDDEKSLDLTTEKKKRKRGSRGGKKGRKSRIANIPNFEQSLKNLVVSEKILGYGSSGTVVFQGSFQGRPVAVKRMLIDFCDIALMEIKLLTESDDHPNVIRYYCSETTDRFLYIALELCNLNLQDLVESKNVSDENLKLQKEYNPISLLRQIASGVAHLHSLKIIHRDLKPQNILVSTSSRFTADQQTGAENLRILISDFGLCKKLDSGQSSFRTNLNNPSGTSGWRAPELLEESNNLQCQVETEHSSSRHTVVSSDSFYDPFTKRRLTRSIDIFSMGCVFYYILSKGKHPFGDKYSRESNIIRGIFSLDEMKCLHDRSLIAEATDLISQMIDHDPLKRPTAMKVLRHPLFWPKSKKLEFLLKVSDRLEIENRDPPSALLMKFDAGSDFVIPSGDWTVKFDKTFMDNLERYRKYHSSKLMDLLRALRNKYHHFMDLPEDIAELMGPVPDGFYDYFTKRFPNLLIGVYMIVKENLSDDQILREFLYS
Assay: IRE1 inhibitors screening (inhibition of transcriptional activator HAC1 in yeast)
Assay type: cell-based
Details: in vitro screening; IRE1 activity of less than 80% = retained as IRE1 inhibitor
MEASUREMENT NAME: μ (% activation) ± σ (%)
Enter your answer as a number in %; do not include the unit.

Before answering, review these 3 worked examples.
MOLECULE: O=C1C=CC(=O)c2c(O)cccc21 [Juglone, 5-hydroxy-1,4-naphthalenedione]
μ (% activation) ± σ (%): 43.5

MOLECULE: O=c1c2ccc(O)c(O)c2oc2cc(O)cc(O)c12 [1,3,5,6-tétra-hydroxy-xanthone]
μ (% activation) ± σ (%): 103.9

MOLECULE: CC(C)=CCC[C@@H](C)[C@@H]1CC[C@]2(C)C3=C(CC[C@@]12C)[C@@]1(C)CC[C@H](O)C(C)(C)[C@@H]1CC3
μ (% activation) ± σ (%): 105.3

Prompt: Recall the reported μ (% activation) ± σ of `O=c1ccc2ccc(O)cc2o1` when tested on IRE1 (Saccharomyces cerevisiae, UniProt P32361).
Completion: 105.3

Prompt: Recall the reported μ (% activation) ± σ of O=C1c2c(O)cc(O)cc2O[C@@H](c2ccc(O)cc2)[C@@H]1c1c(O)cc(O)c2c(=O)cc(-c3ccc(O)cc3)oc12 (racemic) [(±)-Volkensiflavone] when tested on IRE1 (Saccharomyces cerevisiae, UniProt P32361).
Completion: 95.8

Prompt: Recall the reported μ (% activation) ± σ of `COc1cc(C(=O)O)cc(OC)c1O` when tested on IRE1 (Saccharomyces cerevisiae, UniProt P32361).
Completion: 97.8

Prompt: Recall the reported μ (% activation) ± σ of `COc1cc2oc3cc(O)c(OC)c(CC=C(C)C)c3c(=O)c2c(O)c1CC=C(C)C` when tested on IRE1 (Saccharomyces cerevisiae, UniProt P32361).
Completion: 100.3

Prompt: Recall the reported μ (% activation) ± σ of `COc1ccc2c(c1O)Oc1c(O)ccc3c1[C@H](C2)N(C)CC3` when tested on IRE1 (Saccharomyces cerevisiae, UniProt P32361).
Completion: 100.3

----------
Target: IRE1 (Saccharomyces cerevisiae, UniProt P32361)
Construct: endogenous in cells
Assay: IRE1 inhibitors screening (inhibition of transcriptional activator HAC1 in yeast)
Assay type: cell-based
MEASUREMENT NAME: μ (% activation) ± σ (%)
Enter your answer as a number in %; do not include the unit.

COMPOUND: COc1cc2c(cc1O)C1Cc3cc(OC)c(OC)cc3C(C2)N1C (single isomer, unassigned; (-)) [(−)-Norargemonine]
μ (% activation) ± σ [%]: 101.7

COMPOUND: C[n+]1cc2c3c(ccc2c2ccc4cc5c(cc4c21)OCO5)OCO3 [Sanguinarine]
μ (% activation) ± σ [%]: 91.1

COMPOUND: Oc1cc(O)c2c(c1)O[C@H](c1ccc(O)c(O)c1)[C@H](O)[C@H]2c1c(O)cc(O)c2c1O[C@H](c1ccc(O)c(O)c1)[C@H](O)C2 [Procyanidin B2]
μ (% activation) ± σ [%]: 101.6

COMPOUND: O=c1cc(-c2ccccc2)oc2cc(O)cc(O)c12 [Chrysine]
μ (% activation) ± σ [%]: 91.7

COMPOUND: C=C(CO)C(=O)O[C@H]1CC(=C)[C@@H]2C[C@H](O)C(=C)[C@@H]2[C@H]2OC(=O)C(=C)[C@@H]21 [Cynaropicrin]
μ (% activation) ± σ [%]: 105.6

Prompt: Using the record for CC(C)=CCc1c(O)cc2oc3cc(O)c(O)c(CC=C(C)C)c3c(=O)c2c1O [γ-mangostin] , state its measured μ (% activation) ± σ.
Completion: 8.7

Prompt: Using the record for CC(Cc1ccccc1)NCCCc1ccccc1 (stereo not drawn) , state its measured μ (% activation) ± σ.
Completion: 102.6

Prompt: Using the record for COc1cc(C[C@H]2C(=O)OC[C@@H]2Cc2ccc3c(c2)OCO3)cc(OC)c1OC [Yatein] , state its measured μ (% activation) ± σ.
Completion: 100.7

Prompt: Using the record for C[C@@H]1O[C@@H](Oc2c(-c3ccc(O)c(O)c3)oc3cc(O)cc(O)c3c2=O)[C@H](O)[C@H](O)[C@H]1O [Quercitrin] , state its measured μ (% activation) ± σ.
Completion: 102

----------
Molecular target: IRE1 (Saccharomyces cerevisiae, UniProt P32361)
Construct: endogenous in cells
Assay: IRE1 inhibitors screening (inhibition of transcriptional activator HAC1 in yeast)
Type: cell-based
Conditions: in vitro screening; IRE1 activity of less than 80% = retained as IRE1 inhibitor
MEASUREMENT NAME: μ (% activation) ± σ (%)
Enter your answer as a number in %; do not include the unit.

MOLECULE: C[C@H](C/C=C/C(C)(C)O)[C@@H]1CC[C@]2(C)C3=C(CC[C@@]12C)[C@@]1(C)CC[C@H](O)C(C)(C)C1CC3 (stereo partly drawn) [(20R,23E)-Eupha-8,23-diene-3b,25-diol]
TARGET OR TEST SYSTEM: IRE1 (Saccharomyces cerevisiae, UniProt P32361)
μ (% activation) ± σ / %: 100.6

MOLECULE: O=C1C[C@@H](c2ccc(O)cc2)Oc2cc(O)cc(O)c21
TARGET OR TEST SYSTEM: IRE1 (Saccharomyces cerevisiae, UniProt P32361)
μ (% activation) ± σ / %: 101.1

MOLECULE: CC(C)=CCc1c(O)cc2oc3c(CC=C(C)C)c(O)c(O)c(CC=C(C)C)c3c(=O)c2c1O
TARGET OR TEST SYSTEM: IRE1 (Saccharomyces cerevisiae, UniProt P32361)
μ (% activation) ± σ / %: 101.6

MOLECULE: Oc1cc(O)c2c(c1)O[C@H](c1ccc(O)c(O)c1)[C@H](O)C2 [Epicatechin]
TARGET OR TEST SYSTEM: IRE1 (Saccharomyces cerevisiae, UniProt P32361)
μ (% activation) ± σ / %: 101.4

MOLECULE: COc1c(O)ccc2oc3ccccc3c(=O)c12 [1-methoxy-2-hydroxy-xanthone]
TARGET OR TEST SYSTEM: IRE1 (Saccharomyces cerevisiae, UniProt P32361)
μ (% activation) ± σ / %: 97.9

MOLECULE: O=C(O)C1=C[C@@H](O)[C@@H](O)[C@H](O)C1
TARGET OR TEST SYSTEM: IRE1 (Saccharomyces cerevisiae, UniProt P32361)
μ (% activation) ± σ / %: 102.0

Prompt: Recall the reported μ (% activation) ± σ of `COc1cc(/C=C/C(=O)CC(=O)/C=C/c2ccc(O)c(OC)c2)ccc1O` when tested on IRE1 (Saccharomyces cerevisiae, UniProt P32361).
Completion: 177.3

Prompt: Recall the reported μ (% activation) ± σ of `CC(C)=CCc1c(O)c(CC=C(C)C)c2oc3c(O)ccc(O)c3c(=O)c2c1O` when tested on IRE1 (Saccharomyces cerevisiae, UniProt P32361).
Completion: 95.1

----------
Test system: Alternaria brassicicola
Assay: In vitro nephelometric fungal growth test
Settings: Alternaria brassicicola, 33 h, read-out: MIG50 (concentration inducing 50% inhibition of fungal growth)
MEASUREMENT NAME: IC50

COMPOUND: CC(C)=CCc1c(O)cc2oc3c(O)cccc3c(=O)c2c1O [1,3,5-trihydroxy-2-prenylxanthone]
IC50: > 100 µM
--
COMPOUND: CC(C)=CCc1c(O)cc(O)c2c(=O)c3cccc(O)c3oc12 [1,3,5-trihydroxy-4-prenylxanthone]
IC50: 41.3 µM
--
COMPOUND: CC(C)=CCc1c(O)cc2oc3cc(O)c(O)c(CC=C(C)C)c3c(=O)c2c1O
IC50: 12.2 µM

Please find the next compound below.
Prompt: Using the record for O=Cc1cc(I)cc(I)c1O [DISA1, 3,5-diiodosalicylaldehyde, reference compound] , state its measured IC50.
Completion: 5.3 µM

----------
Below, each entry is listed alongside its reported Cmax (concentration inducing at most 20% inhibition of fungal growth).
System: Alternaria brassicicola
Assay: In vitro nephelometric fungal growth test
Conditions: A. brassicicola
Enter your answer as a number in µM; do not include the unit.

Before answering, review these 2 worked examples.
COMPOUND: O=Cc1cc(I)cc(I)c1O [DISA1, 3,5-diiodosalicylaldehyde, reference compound]
TARGET OR TEST SYSTEM: Alternaria brassicicola
OBSERVED: 2
--
COMPOUND: CC(C)=CCc1c(O)cc2oc3cc(O)c(O)c(CC=C(C)C)c3c(=O)c2c1O [γ-mangostin]
TARGET OR TEST SYSTEM: Alternaria brassicicola
OBSERVED: 5

Please find the next compound below.
Prompt: Using the record for CC(C)=CCc1c(O)cc(O)c2c(=O)c3cccc(O)c3oc12 [1,3,5-trihydroxy-4-prenylxanthone] , state its measured Cmax (concentration inducing at most 20% inhibition of fungal growth).
Completion: 10

// data source = patent US20240389587A1
